test system: OVCAR-3; assay: NCI tumour cell line growth inhibition, 48 h
Active and inactive are the calls of the source. Rule as the data show it: active = GI50 up to about 1.1 µM and inactive = higher.
Use one of these outcomes when replying: true (1) for active, false (0) for inactive

Illustrative cases are given below, each with its answer.
# compound, label
data = [
    ("COc1ccc(C2CCC(Cl)(OC)CC2C=O)cc1 (centres undefined)", "false (0)"),
    ("O=C1c2ccccc2C(=O)c2c(NCC3CO3)cccc21 (centres undefined)", "false (0)"),
    ("CC(=O)Oc1cc2c(cc1OCC(F)(F)F)[C@H]1CC[C@]3(C)[C@@H](OC(C)=O)CC[C@H]3[C@@H]1CC2=O", "false (0)"),
]

Request: How was CNCCCCN(C)/[N+]([O-])=N\O classified in this test?
Response: false (0)

Request: How was CC(C)/C(Cl)=N\OC(=O)Nc1ccc(F)c([N+](=O)[O-])c1 classified in this test?
Response: false (0)

Request: How was COc1ccc(-c2nc(Nc3ccccc3)sc2Cc2sc(Nc3ccccc3)nc2-c2ccc(OC)cc2)cc1 classified in this test?
Response: false (0)

Request: How was CC1C[C@H](OC(N)=O)C(C)CC1=O (some centres undefined) classified in this test?
Response: false (0)

Request: How was CC(=O)OC[C@@]1(C)[C@@H]2[C@@H]3[C@@]4(CO[C@]3(C)C(=O)[C@@]3(O)C[C@H](C)[C@H](OC(C)=O)[C@@H]3[C@H]4OC(C)=O)[C@H](OC(=O)c3ccccc3)C[C@@H]21 classified in this test?
Response: false (0)

Request: How was CCN(CC)c1ccc(C(=O)c2ccccc2C(=O)O)c(O)c1 classified in this test?
Response: false (0)

Request: How was C[N+](C)(C)CCC(=O)N1C/C(=C\c2ccccc2)C(=O)/C(=C/c2ccccc2)C1 classified in this test?
Response: false (0)

Request: How was O=c1[nH]c(=O)n(C2OC(CO)C(O)C2O)cc1Oc1ccccc1 (centres undefined) classified in this test?
Response: false (0)

----------
Entries and their GI50 values follow.
tested on: A549; assay: NCI tumour cell line growth inhibition, 48 h
Activity calls are given as the source filed them. No stated cut-off is given here; in the data, active = GI50 up to about 1.1 µM and inactive = higher.

# molecule, result
data = [
    ("CCN(CC)C(=C(C(Cl)=C(Cl)Cl)[N+](=O)[O-])N(CC)CC", "> 100 µM (inactive)"),
    ("CCN(CC)c1ccc(C(=O)c2ccccc2C(=O)O)c(O)c1", "> 100 µM (inactive)"),
    ("O=S(=O)(O)/C(=N\\c1cccc(Cc2ccccc2)c1)Nc1cccc(Cc2ccccc2)c1", "22.4 µM (inactive)"),
    ("Cc1ccc(S(=O)(=O)C(CC(=O)N2CCCC2)C(=O)c2ccccc2)cc1 (stereo unspecified)", "> 100 µM (inactive)"),
    ("COC(=O)C(CCC1(C)OCCO1)C(C)=O (stereo unspecified)", "> 100 µM (inactive)"),
    ("C[n+]1ccccc1/C=C/c1ccc2c(c1)OCO2", "4.59 µM (inactive)"),
    ("COc1cc2c(cc1OC)C(Cc1c3ccccc3cc3ccccc13)N(C)CC2 (stereo unspecified)", "39.8 µM (inactive)"),
    ("O=C1C(c2ccc(Cl)cc2)=[N+]([O-])c2ccccc21", "17.5 µM (inactive)"),
]

Request: Requested field: GI50. Item: Cc1cc2c(cc1Cl)SC(NN(C)C)=NS2(=O)=O
Response: > 10 µM (inactive)

Request: Requested field: GI50. Item: Cc1c(-c2nc(N)nc(C3CC3)c2C)nc(N)nc1C1CC1
Response: > 100 µM (inactive)

Request: Requested field: GI50. Item: Cc1n[nH]c(=O)n1/N=C/c1ccc([N+](=O)[O-])cc1
Response: > 100 µM (inactive)
